Read-out: MicroRNA 122 (MIR122), gene 406906
Assay Text: LTEA_HepaRG_MIR122: Life Technologies and Expression Analysis (LTEA) Assay for MicroRNA 122 (MIR122) using HepaRG (AID 2283516); further: the transcript read is the microRNA miR-122
Particulars: mRNA level, 48 h; actives raise or lower the signal
Active and inactive are the calls of the source. How the source made its calls: active means hit-call score of the fitted dose curve at least 0.9, where 1 is the maximum; inactive means score below 0.9.
Response enum: active, inactive

query: Record lookup: outcome of this test for `CS(=O)(=O)c1cc(C(F)(F)F)ccc1C(=O)c1cnoc1C1CC1` ?
result: inactive

query: Record lookup: outcome of this test for Cc1cnc(C2=NC(C)(C(C)C)C(=O)N2)c(C(=O)O)c1 (configuration not stated) ?
result: inactive

query: Record lookup: outcome of this test for `COP(=S)(OC)SCn1nnc2ccccc2c1=O` ?
result: inactive

query: Record lookup: outcome of this test for `Cc1cc(C)nc(Nc2ccccc2)n1` ?
result: inactive

query: Record lookup: outcome of this test for `COC(=O)NS(=O)(=O)c1ccc(N)cc1` ?
result: inactive

query: Record lookup: outcome of this test for CCC(C)n1c(=O)[nH]c(C)c(Br)c1=O (configuration not stated) ?
result: active

query: Record lookup: outcome of this test for `CN=C=S` ?
result: inactive

query: Record lookup: outcome of this test for `CCN(CC)c1nc(C)cc(OP(=S)(OC)OC)n1` ?
result: inactive

query: Record lookup: outcome of this test for CC(C)C1(C)N=C(c2ncccc2C(=O)O)NC1=O (configuration not stated) ?
result: inactive

query: Record lookup: outcome of this test for CCCCC(O)(Cn1cncn1)c1ccc(Cl)cc1Cl (configuration not stated) ?
result: active

query: Record lookup: outcome of this test for `O=C(O)c1c(Cl)ccc2cc(Cl)cnc12` ?
result: inactive

query: Record lookup: outcome of this test for `O=C(Nc1ccccc1-c1ccc(Cl)cc1)c1cccnc1Cl` ?
result: inactive

query: Record lookup: outcome of this test for `CN/C(=N\[N+](=O)[O-])NCc1cnc(Cl)s1` ?
result: inactive

query: Record lookup: outcome of this test for `Cc1c(COC(=O)[C@@H]2[C@H](/C=C(\Cl)C(F)(F)F)C2(C)C)cccc1-c1ccccc1` ?
result: inactive

query: Record lookup: outcome of this test for `CC1(C)CON(Cc2ccccc2Cl)C1=O` ?
result: inactive

query: Record lookup: outcome of this test for `CS(=O)(=O)c1ccc(C(=O)C2C(=O)CCCC2=O)c([N+](=O)[O-])c1` ?
result: inactive

query: Record lookup: outcome of this test for `COc1cc(Cl)c(OC)cc1Cl` ?
result: inactive

---

Assay Text: ACEA_AR_agonist_AUC_viability: ACEA Biosciences xCELLigence Real-Time Cell Analysis on Androgen Receptor Agonism for Viability (AID 2283775)
Inconclusive results are not listed. Activity calls are given as the source filed them. Rule for the calls: active = hit-call score of the fitted dose curve at least 0.9, where 1 is the maximum; inconclusive = response in the unintended direction; inactive = score below 0.9.
Response enum: active, inactive

query: Record lookup: outcome of this test for `CCSC(=O)N1CCCCCC1` ?
result: inactive

query: Record lookup: outcome of this test for `CN/C(=N\[N+](=O)[O-])NCc1cnc(Cl)s1` ?
result: inactive

query: Record lookup: outcome of this test for `CC(C)Oc1cccc(NC(=O)c2ccccc2C(F)(F)F)c1` ?
result: inactive

query: Record lookup: outcome of this test for `CC(C)NC(=O)N1CC(=O)N(c2cc(Cl)cc(Cl)c2)C1=O` ?
result: active

query: Record lookup: outcome of this test for Cc1cnc(C2=NC(C)(C(C)C)C(=O)N2)c(C(=O)O)c1 (stereo not drawn) ?
result: inactive

query: Record lookup: outcome of this test for `CCOc1nc(F)cc2nc(S(=O)(=O)Nc3c(Cl)cccc3Cl)nn12` ?
result: inactive

query: Record lookup: outcome of this test for `Cc1c(COC(=O)[C@@H]2[C@H](/C=C(\Cl)C(F)(F)F)C2(C)C)cccc1-c1ccccc1` ?
result: active

query: Record lookup: outcome of this test for `COP(=O)(OC)O/C(C)=C/C(=O)N(C)C` ?
result: inactive

query: Record lookup: outcome of this test for CC1(C)C(C=C(Cl)Cl)C1C(=O)OC(C#N)c1cccc(Oc2ccccc2)c1 (stereo not drawn) ?
result: active

query: Record lookup: outcome of this test for `N#Cc1c[nH]cc1-c1cccc2c1OC(F)(F)O2` ?
result: active

query: Record lookup: outcome of this test for `CCOc1nc(C(Cl)(Cl)Cl)ns1` ?
result: inactive

query: Record lookup: outcome of this test for CCCN(CC)CC1COC2(CCC(C(C)(C)C)CC2)O1 (stereo not drawn) ?
result: active

query: Record lookup: outcome of this test for O=C1C2CC=CCC2C(=O)N1SC(Cl)(Cl)Cl (stereo not drawn) ?
result: active

query: Record lookup: outcome of this test for CCNP(=S)(OC)O/C(C)=C/C(=O)OC(C)C (stereo not drawn) ?
result: inactive

query: Record lookup: outcome of this test for `Cn1c(-c2ccccc2)cc(-c2ccccc2)[n+]1C` ?
result: active

query: Record lookup: outcome of this test for `COC(=O)N(C(=O)N1CO[C@@]2(C(=O)OC)Cc3cc(Cl)ccc3C2=N1)c1ccc(OC(F)(F)F)cc1` ?
result: active

query: Record lookup: outcome of this test for `COc1cc(OC)nc(NC(=O)NS(=O)(=O)c2ncccc2OCC(F)(F)F)n1` ?
result: inactive

query: Record lookup: outcome of this test for `COP(=S)(OC)Oc1ccc([N+](=O)[O-])c(C)c1` ?
result: active

query: Record lookup: outcome of this test for CC1(C)C(C(=O)OC(C#N)c2cccc(Oc3ccccc3)c2)C1(C)C (stereo not drawn) ?
result: active

query: Record lookup: outcome of this test for `CC(C)N1C(=O)N(c2ccccc2)CSC1=NC(C)(C)C` ?
result: active

query: Record lookup: outcome of this test for CC1(C)CCC(=Cc2ccc(Cl)cc2)C1(O)Cn1cncn1 (stereo not drawn) ?
result: inactive

query: Record lookup: outcome of this test for `Nc1c(Cl)c(Cl)nc(C(=O)O)c1Cl` ?
result: inactive

query: Record lookup: outcome of this test for `OC(c1ccc(Cl)cc1)(c1ccc(Cl)cc1)C(Cl)(Cl)Cl` ?
result: active

query: Record lookup: outcome of this test for `Clc1nc(Cl)nc(Nc2ccccc2Cl)n1` ?
result: inactive

query: Record lookup: outcome of this test for `O=P(O)(O)CCCl` ?
result: inactive

query: Record lookup: outcome of this test for `C=CCOC(=O)C(C)(C)OC(=O)c1cc(-n2c(=O)cc(C(F)(F)F)n(C)c2=O)ccc1Cl` ?
result: active

query: Record lookup: outcome of this test for CCCCC(O)(Cn1cncn1)c1ccc(Cl)cc1Cl (stereo not drawn) ?
result: active

query: Record lookup: outcome of this test for CCOc1cc(C(C)(C)C)ccc1C1COC(c2c(F)cccc2F)=N1 (stereo not drawn) ?
result: active

query: Record lookup: outcome of this test for `CN=C=S` ?
result: inactive

query: Record lookup: outcome of this test for COCC(C)N(C(=O)CCl)c1c(C)csc1C (stereo not drawn) ?
result: inactive

query: Record lookup: outcome of this test for `Nc1c(Cl)c(F)nc(OCC(=O)O)c1Cl` ?
result: inactive

query: Record lookup: outcome of this test for `CC1(C)CON(Cc2ccccc2Cl)C1=O` ?
result: inactive

query: Record lookup: outcome of this test for CCCCC(C#N)(Cn1cncn1)c1ccc(Cl)cc1 (stereo not drawn) ?
result: active

query: Record lookup: outcome of this test for `CCOP(=S)(OCC)Oc1nc(Cl)n(C(C)C)n1` ?
result: inactive

query: Record lookup: outcome of this test for `Cc1nc(N(C)C)nc(OC(=O)N(C)C)c1C` ?
result: inactive

query: Record lookup: outcome of this test for CC(C)(C)C(=O)C(Oc1ccc(Cl)cc1)n1cncn1 (stereo not drawn) ?
result: inactive

query: Record lookup: outcome of this test for `COc1ccc(-c2ccccc2)cc1NNC(=O)OC(C)C` ?
result: inactive

query: Record lookup: outcome of this test for `Clc1cccc(C(Cl)(Cl)Cl)n1` ?
result: inactive

---

Target Or System: Androgen Receptor/SRC-1 Co-activator, AR (gene 367)
Assay Text: OT_AR_ARSRC1_0960: Odyssey Thera (OT) 16-hour HEK293T Protein-Complementation Assay for Androgen Receptor/SRC-1 Co-activator (AID 2283353);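 further: actives raise the signal above DMSO so potency reflects increased AR and SRC-1 complex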
Active and inactive are the calls of the source. The calls were made as follows: active = hit-call score of the fitted dose curve at least 0.9, where 1 is the maximum; inconclusive = response in the unintended direction; inactive = score below 0.9.
Response enum: yes (active), no (inactive)

query: Record lookup: outcome of this test for Cc1cnc(C2=NC(C)(C(C)C)C(=O)N2)c(C(=O)O)c1 (stereo unspecified) ?
result: no

query: Record lookup: outcome of this test for CCCCC(O)(Cn1cncn1)c1ccc(Cl)cc1Cl (stereo unspecified) ?
result: yes

query: Record lookup: outcome of this test for CC1(C)CCC(=Cc2ccc(Cl)cc2)C1(O)Cn1cncn1 (stereo unspecified) ?
result: yes

query: Record lookup: outcome of this test for `COC(=O)c1c(C(F)F)nc(C(F)(F)F)c(C2=NCCS2)c1CC(C)C` ?
result: no

query: Record lookup: outcome of this test for `CC(C)N1C(=O)N(c2ccccc2)CSC1=NC(C)(C)C` ?
result: yes

query: Record lookup: outcome of this test for `COC(=O)N(C(=O)N1CO[C@@]2(C(=O)OC)Cc3cc(Cl)ccc3C2=N1)c1ccc(OC(F)(F)F)cc1` ?
result: no
